- targetSystem: HuR GGS (human, UniProt Q15717 1-185+=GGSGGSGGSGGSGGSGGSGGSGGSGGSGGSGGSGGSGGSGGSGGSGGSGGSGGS+240-326, internal_change)
- Sequence (Q15717 other isoform, or with tags, fused parts or gaps): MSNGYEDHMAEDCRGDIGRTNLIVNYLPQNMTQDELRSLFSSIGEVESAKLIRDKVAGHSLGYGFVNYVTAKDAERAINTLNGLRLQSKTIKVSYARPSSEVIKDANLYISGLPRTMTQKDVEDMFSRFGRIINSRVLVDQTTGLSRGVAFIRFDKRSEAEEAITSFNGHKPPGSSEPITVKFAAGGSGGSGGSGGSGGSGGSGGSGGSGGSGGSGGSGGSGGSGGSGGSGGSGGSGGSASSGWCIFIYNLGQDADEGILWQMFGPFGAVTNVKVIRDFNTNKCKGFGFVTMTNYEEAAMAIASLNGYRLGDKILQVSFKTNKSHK
- assayMethodText: ITC; n=0.9; ITC: 50 mM sodium phosphate pH 7.0, 200 mM NaCl, 2 mM beta-mercaptoethanol, 298 K; NMR: 20 mM sodium phosphate pH 7.0, 200 mM NaCl, 5 mM DTT, 1 mM EDTA, 298 K
- assayConditions: protein: recombinant; tags: pETM11 His6, cleaved
measuredProperty: pKd
Please express pKd as -log10 of the molar concentration.

What measured pKd goes with AUUUUUAUUUUAUUUUU (ssRNA) [AU17] ?
7.47
